- TEST TARGET: Cyclooxygenase (Bos taurus) (UniProt O62664+O62698)
- MEASUREMENT PROTOCOL: Inhibition of cyclooxygenase activity in bovine seminal vesicles assessed as arachodonic acid dependent formation of adenochrome from L-epinephrine at 500 uM
- Type: protein assay
Active and inactive are the calls of the source. No cut-off for these calls is given here.
MEASURE NAME: inhibition

Observe how each entry below is paired with its result.
[
  {
    "COMPOUND": "CCCCCCCN[C@H]1CCC[C@@H]1CCCCCCC(=O)O (relative stereo)",
    "TEST TARGET": "Cyclooxygenase (Bos taurus) (UniProt O62664+O62698)",
    "inhibition": "inactive"
  },
  {
    "COMPOUND": "CCCCCCN[C@H]1CCC[C@@H]1CCCCCCC(=O)O (relative stereo)",
    "TEST TARGET": "Cyclooxygenase (Bos taurus) (UniProt O62664+O62698)",
    "inhibition": "inactive"
  },
  {
    "COMPOUND": "CCCCCCCN[C@H]1CCC[C@H]1CCCCCCC(=O)O (relative stereo)",
    "TEST TARGET": "Cyclooxygenase (Bos taurus) (UniProt O62664+O62698)",
    "inhibition": "inactive"
  },
  {
    "COMPOUND": "CCCCCCCCN[C@H]1CCC[C@@H]1CCCCCCC(=O)O (relative stereo)",
    "TEST TARGET": "Cyclooxygenase (Bos taurus) (UniProt O62664+O62698)",
    "inhibition": "30%"
  },
  {
    "COMPOUND": "CCCCCCCCN[C@H]1CCC[C@H]1CCCCCCC(=O)O (relative stereo)",
    "TEST TARGET": "Cyclooxygenase (Bos taurus) (UniProt O62664+O62698)",
    "inhibition": "30%"
  }
]

Incoming: Tell us which inhibition value is on record for O=C(O)CCCCCC[C@H]1CCC[C@@H]1NCc1ccccc1 (relative stereo)
Outgoing: inactive
